Test system: Mus musculus
measurement-notes: Teratogenicity in SWV/Fnn mouse assessed as normal fetuses at 283 mg/kg, ip on day 8.5 of gestation (reference value: 100 %)
Assay type: toxicity, organism-based
Parameters: dose 283 mg/kg, route intraperitoneal
experimental-conditions: in vivo
Assignment: determine reported Activity for the given molecules.
One number for each entry, in %.

# annotated cases, reported Activity shown
molecule: CCC[C@H](C(N)=O)[C@H](C)CC [(2S,3R)-SEC-BUTYLPROPYLACETAMIDE]
tested-on: Mus musculus
number: 100

molecule: CCCC(C(N)=O)C(C)CC (racemic)
tested-on: Mus musculus
number: 87

molecule: CCC[C@@H](C(N)=O)[C@H](C)CC [(2R,3R)-SEC-BUTYLPROPYLACETAMIDE]
tested-on: Mus musculus
number: 94.6

molecule: CCC[C@@H](C(N)=O)[C@@H](C)CC [(2R,3S)-SEC-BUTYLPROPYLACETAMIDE]
tested-on: Mus musculus
number: 100

The molecule listed as CCC[C@H](C(N)=O)[C@@H](C)CC has a reported Activity of 100

====

Give Tmax for every item shown.
measurement-notes: Tmax in rat at 60 mg/kg, ip
Format: ADME, organism-based
Parameters: dose 60 mg/kg, route intraperitoneal
experimental-conditions: in vivo
Please state the number and follow it with the unit.

Take a look at these entries with their results.
compound: CCC[C@@H](C(N)=O)[C@@H](C)CC [(2R,3S)-SEC-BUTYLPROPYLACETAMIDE]
Tmax: 60 min
--
compound: CCCC(C(N)=O)C(C)CC (racemic)
Tmax: 45 min
--
compound: CCC[C@H](C(N)=O)[C@@H](C)CC
Tmax: 30 min
--
compound: CCC[C@@H](C(N)=O)[C@H](C)CC [(2R,3R)-SEC-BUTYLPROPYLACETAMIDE]
Tmax: 30 min

Please turn your attention to the following entry.
Record CCC[C@H](C(N)=O)[C@H](C)CC [(2S,3R)-SEC-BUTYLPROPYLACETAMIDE] . Reported Tmax: 30 min

====

Tested on: Mus musculus
measurement-notes: Teratogenicity in SWV/Fnn mouse assessed as normal fetuses at 141 mg/kg, ip on day 8.5 of gestation (reference value: 100 %)
Assay type: toxicity, organism-based
Set-up: dose 141 mg/kg, route intraperitoneal
experimental-conditions: in vivo
property-measured: Activity (%)
Answers are plain numbers, in %.

As a guide, the following entries are already answered.
compound: CCCC(C(N)=O)C(C)CC (racemic)
tested-on: Mus musculus
Activity [%]: 93
//
compound: CCC[C@H](C(N)=O)[C@H](C)CC [(2S,3R)-SEC-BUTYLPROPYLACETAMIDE]
tested-on: Mus musculus
Activity [%]: 100
//
compound: CCC[C@H](C(N)=O)[C@@H](C)CC
tested-on: Mus musculus
Activity [%]: 100

List reported Activity for each of these compounds:
1. CCC[C@@H](C(N)=O)[C@@H](C)CC [(2R,3S)-SEC-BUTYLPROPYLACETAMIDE]
2. CCC[C@@H](C(N)=O)[C@H](C)CC [(2R,3R)-SEC-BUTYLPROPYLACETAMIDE]

Solution:
[100, 100]

====

measurement-notes: Solubility of the compound in water
Assay type: physicochemical
property-measured: solubility (µg/mL)
Give bare numbers, in µg/mL.

The measured solubility associated with CCCC(C(N)=O)C(C)CC (racemic) reads 1500

Data provenance: ChEMBL document CHEMBL2417510
